meta.source: the supplement of paper PMC8253809

Tested on: SUDIPGXIII (diffuse intrinsic pontine glioma line)
Test: growth inhibition (% activity, log2 RLU normalised to DMSO / staurosporine); higher = more growth inhibition
Details: 33 µM
A collection of compounds and their measured growth inhibition
Reply numerically in %, unit not repeated.

| Compound | growth inhibition (%) |
| --- | --- |
| CN(C)CCOC(c1ccccc1)c1ccccc1 | -1.22 |
| CN1C(C(=O)Nc2ccccn2)=C(O)c2ccccc2S1(=O)=O | -1.07 |
| CC(C(=O)O)c1ccc2c(c1)[nH]c1ccc(Cl)cc12 (centres undefined) | -6.63 |
| CCC(=O)NCC[C@@H]1CCc2ccc3c(c21)CCO3 | 0.726 |
| CN1CC2c3ccccc3Oc3ccc(Cl)cc3C2C1 (centres undefined) | 0.618 |

Given the entry `CSc1nc2cc(Cl)c(Oc3cccc(Cl)c3Cl)cc2[nH]1` , report its measured growth inhibition.
2.86

Given the entry `COC(c1ccccc1)(c1ccccc1)[C@H](Oc1nc(C)cc(C)n1)C(=O)O` , report its measured growth inhibition.
-15.1

Given the entry `CC(C)OC(=O)OCOP(=O)(CO[C@H](C)Cn1cnc2c(N)ncnc21)OCOC(=O)OC(C)C` , report its measured growth inhibition.
1.94

Given the entry CNC(CC(C)C)C(=O)NC1C(=O)NC(CC(N)=O)C(=O)NC2C(=O)NC3C(=O)NC(C(=O)NC(C(=O)O)c4cc(O)cc(O)c4-c4cc3ccc4O)C(O)c3ccc(c(Cl)c3)Oc3cc2cc(c3OC2OC(CO)C(O)C(O)C2OC2CC(C)(N)C(O)C(C)O2)Oc2ccc(cc2Cl)C1O (centres undefined) , report its measured growth inhibition.
-0.803

====

Tested on: DIPGX7 (H3.3 K27M diffuse intrinsic pontine glioma line)
Experiment: growth inhibition (% activity, log2 RLU normalised to DMSO / staurosporine); higher = more growth inhibition
Conditions: 33 µM
A collection of compounds and their measured growth inhibition
Reply numerically in %, unit not repeated.

Completed entries (count: 2):
| Compound | Numeric result |
| --- | --- |
| NCC1OC(OC2C(N)CC(N)C(OC3OC(CO)C(O)C(N)C3O)C2O)C(N)C(O)C1O (centres undefined) | 0.452 |
| CO[C@H]1/C=C/O[C@@]2(C)Oc3c(C)c(O)c4c(O)c(c5c(nc6cc(C)ccn65)c4c3C2=O)NC(=O)/C(C)=C\C=C\[C@H](C)[C@H](O)[C@@H](C)[C@@H](O)[C@@H](C)[C@H](OC(C)=O)[C@@H]1C | 0.284 |

Given the entry `CC/C(=C(\c1ccccc1)c1ccc(OCCN(C)C)cc1)c1ccccc1` , report its measured growth inhibition.
12.1

Given the entry CC(C)(C)C(=O)C(Oc1ccc(Cl)cc1)n1ccnc1 (centres undefined) , report its measured growth inhibition.
3.93

Given the entry `Cc1c(Nc2ncccc2C(=O)O)cccc1C(F)(F)F` , report its measured growth inhibition.
0.522

Given the entry `CC(C)(O)c1ccccc1CC[C@@H](SCC1(CC(=O)O)CC1)c1cccc(/C=C/c2ccc3ccc(Cl)cc3n2)c1` , report its measured growth inhibition.
-2.4

====

Test system: SUDIPGXIII
Assay: growth inhibition (% activity, log2 RLU normalised to DMSO / staurosporine); higher = more growth inhibition
Details: 33 µM
A collection of compounds and their measured growth inhibition
Reply numerically in %, unit not repeated.

Completed entries (count: 3):
| Compound | growth inhibition / % |
| --- | --- |
| CN(C)CCN(Cc1ccccc1)c1ccccn1 | 2.37 |
| CO[C@H]1/C=C/O[C@@]2(C)Oc3c(C)c(O)c4c(O)c(c(/C=N/N5CCN(C)CC5)c(O)c4c3C2=O)NC(=O)/C(C)=C\C=C\[C@H](C)[C@H](O)[C@@H](C)[C@@H](O)[C@@H](C)[C@H](OC(C)=O)[C@@H]1C | 1.7 |
| COc1ccccc1OCC(O)CO (configuration not stated) | 1.23 |

Could you now look at the following compound, please?
Given the entry `O=c1n(CCCN2CCN(c3cccc(Cl)c3)CC2)nc2ccccn12` , report its measured growth inhibition.
0.00306

====

A collection of molecules and their measured growth inhibition
Tested on: HNSC
Test: growth inhibition (% activity, log2 RLU normalised to DMSO / staurosporine); higher = more growth inhibition
Conditions: 33 µM
Reply numerically in %, unit not repeated.

Completed entries (count: 4):
| Smiles code | Parameter | Display unit | Numeric result |
| --- | --- | --- | --- |
| COc1ccccc1N1CCN(CCCNc2cc(=O)n(C)c(=O)n2C)CC1 | growth inhibition | % | 0.25 |
| CCN(CC)CCOc1ccc(C(=C(Cl)c2ccccc2)c2ccccc2)cc1 | growth inhibition | % | 63.5 |
| CCCCNc1cc(C(=O)O)cc(S(N)(=O)=O)c1Oc1ccccc1 | growth inhibition | % | -3.52 |
| CO/N=C(\C(=O)N[C@@H]1C(=O)N2C(C(=O)O)=C(Cn3ccc(=N)n3CCO)CS[C@H]12)c1csc(N)n1 | growth inhibition | % | -1.19 |

Could you now look at the following molecule, please?
Given the entry `COC(=O)/C=C/C(=O)OC` , report its measured growth inhibition.
6.49

====

A collection of compounds and their measured growth inhibition
System: DIPGX29 (H3.3 K27M diffuse intrinsic pontine glioma line)
Experiment: growth inhibition (% activity, log2 RLU normalised to DMSO / staurosporine); higher = more growth inhibition
Conditions: 33 µM
Reply numerically in %, unit not repeated.

Completed entries (count: 8):
| Smiles code | Target of assay | growth inhibition [%] |
| --- | --- | --- |
| CC(=O)O[C@]1(C(C)=O)CC[C@H]2[C@@H]3C[C@H](C)C4=CC(=O)C=C[C@]4(C)[C@@]3(F)[C@@H](O)C[C@@]21C | DIPGX29 | 1.69 |
| CC1(C)Cc2c(-c3ccccc3)c(-c3ccc(Cl)cc3)c(CC(=O)O)n2C1 | DIPGX29 | 1.89 |
| O=C1NCC2(CCN(CCc3ccccc3)CC2)O1 | DIPGX29 | 0.324 |
| CN1CC(=O)NC1=N | DIPGX29 | 1.19 |
| N=C(N=C(N)N)N1CCOCC1 | DIPGX29 | 0.894 |
| COc1ccc2c(c1)c(CC(=O)O)c(C)n2C(=O)c1ccc(Cl)cc1 | DIPGX29 | -3.09 |
| Cc1cccc(Nc2ccccc2C(=O)O)c1C | DIPGX29 | -4 |
| N[C@@H](CSCCCO)C(=O)O | DIPGX29 | -3.76 |

Given the entry `NC(=O)NO` , report its measured growth inhibition.
-5.64

Given the entry `CC(=O)CCCCn1c(=O)c2c(ncn2C)n(C)c1=O` , report its measured growth inhibition.
0.465

Given the entry `O=C(O)C1=CO[C@@H](O[C@@H]2O[C@H](CO)[C@@H](O)[C@H](O)[C@H]2O)[C@@H]2C(CO)=CC[C@H]12` , report its measured growth inhibition.
-3.84

====

A collection of compounds and their measured growth inhibition
Test system: DIPGX7
Assay: growth inhibition (% activity, log2 RLU normalised to DMSO / staurosporine); higher = more growth inhibition
Details: 33 µM
Reply numerically in %, unit not repeated.

Completed entries (count: 3):
| Compound | growth inhibition, % |
| --- | --- |
| O=C(c1ccc(OCCN2CCCCC2)cc1)c1c(-c2ccc(O)cc2)sc2cc(O)ccc12 | 22.3 |
| CN(C)CCC=C1c2ccccc2CCc2ccccc21 | 1.28 |
| Cc1cc2c(cc1S(N)(=O)=O)S(=O)(=O)CCC2 | -0.717 |

Given the entry O=C(C1CCCCC1)N1CC(=O)N2CCc3ccccc3C2C1 (centres undefined) , report its measured growth inhibition.
1.04

====

Test system: SUDIPGIV (diffuse intrinsic pontine glioma line)
Assay: growth inhibition (% activity, log2 RLU normalised to DMSO / staurosporine); higher = more growth inhibition
Settings: 33 µM
Parameter: growth inhibition (%)
Reply numerically in %, unit not repeated.

Completed entries (count: 5):
| Molecule | Target of assay | Numeric result |
| --- | --- | --- |
| CCCNC(C)C(=O)Nc1c(C)csc1C(=O)OC (stereo not given) | SUDIPGIV | 0.331 |
| CC(C)(Oc1ccc(CCNC(=O)c2ccc(Cl)cc2)cc1)C(=O)O | SUDIPGIV | 0.843 |
| CNC(=O)c1cc(Oc2ccc(NC(=O)Nc3ccc(Cl)c(C(F)(F)F)c3)c(F)c2)ccn1 | SUDIPGIV | 1.19 |
| C#C[C@]1(O)CC[C@H]2[C@@H]3CCc4cc(O)ccc4[C@H]3CC[C@@]21C | SUDIPGIV | -1.64 |
| CCN(CC)CCOCCOC(=O)C(CC)(CC)c1ccccc1 | SUDIPGIV | 2.41 |

Recall the recorded growth inhibition for CN(C)c1cc(NC(=O)CNC(C)(C)C)c(O)c2c1CC1CC3C(N(C)C)C(=O)C(C(N)=O)=C(O)C3(O)C(=O)C1=C2O (stereo not given) with SUDIPGIV and state it.
-2.9

Recall the recorded growth inhibition for `CC(=O)OCC(=O)[C@@]1(O)[C@H](C)C[C@H]2[C@@H]3CCC4=CC(=O)C=C[C@]4(C)[C@@]3(F)[C@@H](O)C[C@@]21C` with SUDIPGIV and state it.
5.88

Recall the recorded growth inhibition for `Nc1nc2c(ncn2COC(CO)CO)c(=O)[nH]1` with SUDIPGIV and state it.
-0.797

Recall the recorded growth inhibition for `COC(=O)Nc1nc2cc(Sc3ccccc3)ccc2[nH]1` with SUDIPGIV and state it.
10.8
